- Target under test: T1, 4H3782-AA
- T1 chain: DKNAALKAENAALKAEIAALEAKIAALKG
- Method summary: two-hybrid library CCmax;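 also: natural log of median RNA to DNA barcode read ratio; higher means stronger binding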
- Condition notes: mean of both orientations
Reported metric: interaction score
Note: the reply should be a number with no unit written.

Consider the binder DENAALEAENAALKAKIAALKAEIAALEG [4H1257-AA] and give its measured interaction score. 2.21

Subsequent entry: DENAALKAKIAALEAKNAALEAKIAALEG [4H1845-AA] -1.6

Subsequent entry: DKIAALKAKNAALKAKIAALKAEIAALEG [4H3049-AA] 1.57

Subsequent entry: DENAALEAEIAALKAENAALEAKIAALKG [4H1110-AA] -0.707

Subsequent entry: DKIAALKAENAALEAKNAALKAKIAALKG [4H2750-AA] -0.13

Subsequent entry: DENAALEAKNAALEAKIAALEAKIAALKG [4H1446-AA] 0.114
